Tested on: HeLa cells
test.description: Direct treatment of cultured HeLa cells (mitotic arrest, apoptotic cell death, Plk1 localization)
Format: cell-based
condition.notes: 200 μM
Where a SMILES comes first, the peptide text is derived from it. [ ]: non-standard residue; d: D form. The star is where a group is joined. Abu(3R-Me,4-PO3H2) = C[C@@H](CP(=O)(O)O)[C@H](N)C(=O)O; CH3O(CH2CH2O)7C2H4CO = COCCOCCOCCOCCOCCOCCOCCOCCC(=O)*
measured.parameter: mitotic arrest / apoptotic cell death / cellular response

COCCOCCOCCOCCOCCOCCOCCOCCC(=O)N1CCC[C@H]1C(=O)N[C@@H](CC(C)C)C(=O)N[C@@H](Cc1cnc[nH]1)C(=O)N[C@@H](C)C(=O)N[C@H](C(N)=O)[C@@H](C)CP(=O)(O)O [PEG-1* (S/A)] ({CH3O(CH2CH2O)7C2H4CO}-PLHA[Abu(3R-Me,4-PO3H2)]-NH2)
not

From: patent US10266565B2
